src = ChEMBL document CHEMBL5500362

measurementProtocol: AUC (0 to infinity) in C57BL/6 mouse at 1 mg/kg, sc by LC-MS/MS analysis
Format: ADME, organism-based
runParameters: in vivo
measureName: AUC(0-inf) (ng·h/mL)

# compoundString, measureName, endpointUnit, measValue
rows = [
    ("COc1ccc(-c2nc3ccccc3s2)cc1OCCCCCCC(=O)NO", "AUC(0-inf)", "ng·h/mL", 614),
]

====

System: HeLa;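 also: HDAC inhibition in HeLa cells, read on a microplate reader using an acetylated peptide AMC substrate, expressed relative to control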
runParameters: Homo sapiens, dose 100.0 nM, time 15.0 min
Catalogue of compounds with associated inhibition

# compoundString, inhibition (%)
measured = [
    ("O=C(CCCCCCOc1ccc(-c2nc3ccccc3s2)c(F)c1)NO", 83),
    ("O=C(CCCOc1cccc(-c2nc3ccccc3s2)c1)NO", 41.2),
    ("O=C(CCCCCCOc1ccc(-c2nc3ccccc3s2)cc1F)NO", 46.2),
    ("O=C(CCCCCCOc1cccc(-c2nc3ccccc3s2)c1F)NO", 68.7),
    ("O=C(CCCCCCOc1ccc(-c2nc3ccc(Cl)cc3s2)cc1)NO", 21.7),
    ("COc1ccc2nc(-c3ccc(OC)c(OCCCCCCC(=O)NO)c3)sc2c1", 80.3),
    ("CCOc1cc(-c2nc3ccccc3s2)ccc1OCCCCCCC(=O)NO", 75),
    ("COc1ccc2nc(-c3ccc(OCCCCCCC(=O)NO)cc3)sc2c1", 51.7),
    ("Cc1cc(-c2nc3ccccc3s2)ccc1OCCCCCCC(=O)NO", 39.3),
    ("O=C(CCCCCCOc1ccc(-c2nc3ccccc3s2)cc1Cl)NO", 18.3),
    ("COc1ccc(-c2nc3ccccc3s2)cc1OCCCCCCC(=O)NO", 88),
]
